# Procedure Text: Feline pharmacokinetics (cannabidiol in serum by LC-MS/MS)
# Assay type: in vivo, cat
# Condition Label: serum, po, 2 mg/kg, individual cats; oral 2/mg/kg cannabidiol in capsule form; read-out: T½ el (converted)

- Line Notation: "C=C(C)[C@@H]1CCC(C)=C[C@H]1c1c(O)cc(CCCCC)cc1O"
  half-life: "72 min"

###

# Procedure Text: Feline pharmacokinetics (cannabidiol in serum by LC-MS/MS)
# Type: in vivo, cat
# Condition Label: serum, po, 2 mg/kg

- Compound: "C=C(C)[C@@H]1CCC(C)=C[C@H]1c1c(O)cc(CCCCC)cc1O [Cannabidiol, cannabidiol]"
  Cmax (ng/mL): 47.6

Values from patent US20220249586A1
